# study system: Cyclophilin A (Homo sapiens)
# Construct: made in house
# Sequence (P62937 whole entry, species assumed): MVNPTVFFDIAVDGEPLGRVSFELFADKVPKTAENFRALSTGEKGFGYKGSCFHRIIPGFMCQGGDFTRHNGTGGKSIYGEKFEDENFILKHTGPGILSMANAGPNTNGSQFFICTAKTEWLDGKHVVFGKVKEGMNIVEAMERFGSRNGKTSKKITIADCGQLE
# protocol: AlphaLISA inhibition of binding of biotinylated Cyclosporin A to FLAG tagged Cyclophilin A
# condition info: test concentration not given
reported endpoint: % inhibition of CsA binding to Cyclophilin A (%)
Please give a number only; it is taken to be in %.

Report % inhibition of CsA binding to Cyclophilin A for C/C=C/C[C@@H](C)[C@@H](O)[C@H]1C(=O)N[C@@H](CC)C(=O)N(C)CC(=O)N(C)[C@@H]([C@@H](C)CC)C(=O)N[C@@H](C(C)C)C(=O)N(C)[C@@H](CC(C)C)C(=O)N[C@@H](C)C(=O)N[C@H](C)C(=O)N(C)[C@@H](CC(C)C)C(=O)N(C)[C@@H](CC(C)C)C(=O)N(C)[C@@H](C(C)C)C(=O)N1C [Compound C33] 100.08

Next:
Output % inhibition of CsA binding to Cyclophilin A of C/C=C/C[C@@H](C)[C@@H](O)[C@H]1C(=O)N[C@@H](CC)C(=O)N(C)CC(=O)N(C)[C@@H](C)C(=O)N[C@@H](C(C)C)C(=O)N(C)[C@@H](CC(C)C)C(=O)N[C@@H](C)C(=O)N[C@H](C)C(=O)N(C)[C@@H](CC(C)C)C(=O)N(C)[C@@H](CC(C)C)C(=O)N(C)[C@@H](C(C)C)C(=O)N1C [Compound C34] 100.01

====

# study system: Cyclophilin A (Homo sapiens)
# Construct: made in house
# protocol: AlphaLISA inhibition of binding of biotinylated Cyclosporin A to FLAG tagged Cyclophilin A
# condition info: AlphaLISA signal; test concentration not given
Where a SMILES comes first, the peptide text is derived from it. [ ]: non-standard residue; d: D form. MeBmt = C/C=C/C[C@@H](C)[C@@H](O)[C@H](NC)C(=O)O; NMeY = CN[C@@H](Cc1ccc(O)cc1)C(=O)O; NMeT = CN[C@H](C(=O)O)[C@@H](C)O; NMeL = CN[C@@H](CC(C)C)C(=O)O; NMeV = CN[C@H](C(=O)O)C(C)C; Abu = CC[C@H](N)C(=O)O; Sar = CNCC(=O)O
Listed next: entries and their corresponding % signal.
A number alone suffices; assume %.

Completed entries (count: 2):
Report the value of % signal obtained on Cyclophilin A (Homo sapiens) for C/C=C/C[C@@H](C)[C@@H](O)[C@H]1C(=O)N[C@@H](CC)C(=O)N(C)CC(=O)N(C)[C@@H]([C@@H](C)O)C(=O)N[C@@H](C(C)C)C(=O)N(C)[C@@H](CC(C)C)C(=O)N[C@@H](CC(C)C)C(=O)N[C@H](C)C(=O)N(C)[C@@H](CC(C)C)C(=O)N(C)[C@@H](CC(C)C)C(=O)N(C)[C@@H](C(C)C)C(=O)N1C [Compound C51] (cyclo([MeBmt][Abu][Sar][NMeT]V[NMeL]L[dA][NMeL][NMeL][NMeV])) . 3.38

Identify measured % signal obtained with Cyclophilin A (Homo sapiens) for C/C=C/C[C@@H](C)[C@@H](O)[C@H]1C(=O)N[C@@H](CC)C(=O)N(C)CC(=O)N(C)[C@@H](Cc2ccc(O)cc2)C(=O)N[C@@H](CC(C)C)C(=O)N(C)[C@@H](CC(C)C)C(=O)N[C@@H](CC(C)C)C(=O)N[C@H](C)C(=O)N(C)[C@@H](CC(C)C)C(=O)N(C)[C@@H](CC(C)C)C(=O)N(C)[C@@H](C(C)C)C(=O)N1C [Compound C64] (cyclo([MeBmt][Abu][Sar][NMeY]L[NMeL]L[dA][NMeL][NMeL][NMeV])) . 28.50

---
Report value: % signal, system: Cyclophilin A (Homo sapiens), compound: `C/C=C/C[C@@H](C)[C@@H](O)[C@H]1C(=O)N[C@@H](CC)C(=O)N(C)CC(=O)N(C)[C@@H](CC(C)C)C(=O)N[C@@H](C(C)C)C(=O)N(C)CC(=O)N[C@@H](C)C(=O)N[C@H](C)C(=O)N(C)[C@@H](CC(C)C)C(=O)N(C)[C@@H](CC(C)C)C(=O)N(C)[C@@H](C(C)C)C(=O)N1C` 0.06
